Assay: Chemical stability assessment of peptides (relative purity loss)
Type: physicochemical
Details: 50 mM phosphate buffer pH 7.4 + acetonitrile (1:1); 24 hours at 37° C.
Starred links: 1 amine or outer side, 2 acyl side, 3 side chain; linkers in the order of their positions; H or OH if unused. Positions of bridges follow the written chain, without caps; N, C: chain ends. Non-standard residues stand in square brackets, D forms with d. Residues, ends and D or L forms follow the SMILES beside them. *: point of attachment. X3 = CN(CCCCC(=O)N[C@@H](CS[*:2])C(=O)[*:1])[*:3]; X1 = O=C(CCCCN[*:3])N[C@@H](CS[*:2])C(=O)[*:1]; 2Nal = N[C@@H](Cc1ccc2ccccc2c1)C(=O)O; AEF = NCCOc1ccc(C[C@H](N)C(=O)O)cc1; Thp = NC1(C(=O)O)CCOCC1; Me2NCH2CH2 = CN(C)CC*; Aib = CC(C)(N)C(=O)O; Ahx = NCCCCCC(=O)O
compounds and their reported Chemical stability (relative purity loss) Buffer pH 7.4
Express the result in % but write the number alone.

>>> measurement("COc1ccc(C[C@@H]2NC(=O)[C@@H]3CSSC[C@H](NC(=O)CCCCCNC(=O)CC[C@@H](C(=O)N[C@@H](CC(N)=O)C(=O)N[C@@H](CC(N)=O)C(N)=O)NC(=O)C(C)(C)NC(=O)[C@H](Cc4ccc5ccccc5c4)NC2=O)C(=O)N[C@@H](CC(N)=O)C(=O)N[C@@H]([C@@H](C)O)C(=O)N[C@@H](Cc2c[nH]c4ccccc24)C(=O)N[C@@H](CCC(N)=O)C(=O)N3)cc1 [compound 2] ([Ahx]CNTWQCY(Me)[2Nal][Aib]ENN-NH2; disulfide 2-7; lactam N-11)")
0.8
>>> measurement("CC(=O)N[C@H]1CCCCNC(=O)[C@@H]2CSSC[C@H](NC(=O)[C@H](CCC(N)=O)NC(=O)[C@H](Cc3c[nH]c4ccccc34)NC1=O)C(=O)N[C@@H](Cc1ccc(OCCN(C)C)cc1)C(=O)N[C@@H](Cc1ccc3ccccc3c1)C(=O)NC1(CCOCC1)C(=O)N[C@H](C(=O)N[C@@H](C)C(=O)N[C@H](CC(C)C)C(N)=O)CCC(=O)NCCCCC(=O)N2 [compound 33] (Ac-KWQCY(Me2NCH2CH2)[2Nal][Thp]EA[dL]-NH2; linker 1-4-8 via X1)")
0.1

Moving on to the next compound.
Data request: Find the recorded Chemical stability (relative purity loss) Buffer pH 7.4 belonging to CC(=O)N[C@H]1CCCCNC(=O)[C@@H]2CSSC[C@H](NC(=O)[C@H](CCC(N)=O)NC(=O)[C@H](Cc3c[nH]c4ccccc34)NC1=O)C(=O)N[C@@H](Cc1ccc(OCCN)cc1)C(=O)N[C@@H](Cc1ccc3ccccc3c1)C(=O)NC1(CCOCC1)C(=O)N[C@H](C(=O)N[C@@H](C)C(=O)N[C@H](CC(C)C)C(N)=O)CCC(=O)N(C)CCCCC(=O)N2 [compound 34] (Ac-KWQC[AEF][2Nal][Thp]EA[dL]-NH2; linker 1-4-8 via X3) and report it.
Data returned: 0.3

###

compounds and their reported pIC50
Molecular target: human interleukin-23 receptor (recombinant human IL-23R-Fc chimera) (Homo sapiens)
Construct: Fc (IgG Fc fusion)
Assay: Human ELISA IL23/IL23R (assay for specific human IL23R antagonists)
Assay type: binding
Conditions: Table 10; read-out: Human ELISA IL23/IL23R IC50
Starred links: 1 amine or outer side, 2 acyl side, 3 side chain; linkers in the order of their positions; H or OH if unused. Positions of bridges follow the written chain, without caps; N, C: chain ends. Non-standard residues stand in square brackets, D forms with d. Residues, ends and D or L forms follow the SMILES beside them. *: point of attachment. X3 = CN(CCCCC(=O)N[C@@H](CS[*:2])C(=O)[*:1])[*:3]; X6 = O=C(CCC(=O)[*:3])N[C@@H](CS[*:2])C(=O)[*:1]; Trp(7-Me) = Cc1cccc2c(C[C@H](N)C(=O)O)c[nH]c12; X1 = O=C(CCCCN[*:3])N[C@@H](CS[*:2])C(=O)[*:1]; Trp(1-Me) = Cn1cc(C[C@H](N)C(=O)O)c2ccccc21; 2Nal = N[C@@H](Cc1ccc2ccccc2c1)C(=O)O; AEF = NCCOc1ccc(C[C@H](N)C(=O)O)cc1; 3Pal = N[C@@H](Cc1cccnc1)C(=O)O; Lys(Me) = CNCCCC[C@H](N)C(=O)O; αMeL = CC(C)C[C@](C)(N)C(=O)O; Thp = NC1(C(=O)O)CCOCC1; Me2NCH2CH2 = CN(C)CC*; Aib = CC(C)(N)C(=O)O; Ahx = NCCCCCC(=O)O; Ava = NCCCCC(=O)O; Sar = CNCC(=O)O
# pIC50 is unitless: minus log10 of the molar concentration; print number only

Consider the worked cases shown below.
>>> measurement("C[C@H](NC(=O)[C@@H]1CC(=O)NCCCCCC(=O)N[C@H]2CSSC[C@H](NC(=O)[C@H](CCC(N)=O)NC(=O)[C@H](Cc3c[nH]c4ccccc34)NC(=O)CCCCNC2=O)C(=O)N[C@@H](Cc2ccc(OCCN)cc2)C(=O)N[C@@H](Cc2ccc3ccccc3c2)C(=O)NC(C)(C)C(=O)N1)C(=O)NCC(N)=O [compound 53] ([Ahx]C[Ava]WQC[AEF][2Nal][Aib]DAG-NH2; disulfide 2-6; lactam N-10)")
9.15
>>> measurement("CC(=O)N[C@H]1CCCCNC(=O)[C@@H]2CSSC[C@H](NC(=O)[C@H](CC(C)C)NC(=O)[C@H](Cc3c[nH]c4c(C)cccc34)NC1=O)C(=O)N[C@@H](Cc1ccc(OCCN(C)C)cc1)C(=O)N[C@@H](Cc1ccc3ccccc3c1)C(=O)N[C@@](C)(CC(C)C)C(=O)N[C@H](C(=O)N[C@@H](CC(N)=O)C(=O)N[C@@H](Cc1cccnc1)C(=O)N(C)CC(N)=O)CCCCN(C)C(=O)CCC(=O)N2 [compound 68] (Ac-K[Trp(7-Me)]LCY(Me2NCH2CH2)[2Nal][αMeL][Lys(Me)]N[3Pal][Sar]-NH2; linker 1-4-8 via X6)")
8.83
>>> measurement("COc1ccc(C[C@@H]2NC(=O)[C@H]3NC(=O)[C@H](CCC(N)=O)NC(=O)[C@H](Cc4c[nH]c5ccccc45)NC(=O)CCCCNC(=O)[C@H](CCC(=O)O[C@@H]3C)NC(=O)CCCCCNC(=O)C[C@@H](C(=O)N[C@@H](CC(N)=O)C(=O)N[C@@H](CC(N)=O)C(N)=O)NC(=O)C(C)(C)NC(=O)[C@H](Cc3ccc4ccccc4c3)NC2=O)cc1 [compound 39] ([Ahx]E[Ava]WQTY(Me)[2Nal][Aib]DNN-NH2; ester 2-6; lactam N-10)")
8.96
>>> measurement("CC(=O)N[C@H]1CCCCNC(=O)[C@@H]2CSSC[C@H](NC(=O)[C@H](CCC(N)=O)NC(=O)[C@H](Cc3c[nH]c4ccccc34)NC1=O)C(=O)N[C@@H](Cc1ccc(OCCN)cc1)C(=O)N[C@@H](Cc1ccc3ccccc3c1)C(=O)NC1(CCOCC1)C(=O)N[C@H](C(=O)N[C@@H](CC(N)=O)C(=O)NCC(N)=O)CCC(=O)N(C)CCCCC(=O)N2 [compound 16] (Ac-KWQC[AEF][2Nal][Thp]ENG-NH2; linker 1-4-8 via X3)")
9.48

Data request: Find the recorded pIC50 belonging to CC(=O)N[C@H]1CCCCNC(=O)[C@@H]2CSSC[C@H](NC(=O)[C@H](CCC(N)=O)NC(=O)[C@H](Cc3c[nH]c4ccccc34)NC1=O)C(=O)N[C@@H](Cc1ccc(OCCN)cc1)C(=O)N[C@@H](Cc1ccc3ccccc3c1)C(=O)NC(C)(C)C(=O)N[C@H](C(=O)N[C@@H](C)C(=O)N[C@H](CC(C)C)C(N)=O)CCC(=O)N(C)CCCCC(=O)N2 [compound 19] (Ac-KWQC[AEF][2Nal][Aib]EA[dL]-NH2; linker 1-4-8 via X3) and report it.
Data returned: 9.13

Data request: Find the recorded pIC50 belonging to CC(=O)N[C@H]1CCCCNC(=O)[C@@H]2CSSC[C@H](NC(=O)[C@H](CCC(N)=O)NC(=O)[C@H](Cc3c[nH]c4ccccc34)NC1=O)C(=O)N[C@@H](Cc1ccc(OCCN(C)C)cc1)C(=O)N[C@@H](Cc1ccc3ccccc3c1)C(=O)NC1(CCOCC1)C(=O)N[C@H](C(=O)N[C@@H](CC(N)=O)C(=O)NCC(N)=O)CCC(=O)NCCCCC(=O)N2 [compound 30] (Ac-KWQCY(Me2NCH2CH2)[2Nal][Thp]ENG-NH2; linker 1-4-8 via X1) and report it.
Data returned: 9.27

Data request: Find the recorded pIC50 belonging to CC(=O)NCCCC[C@@H]1NC(=O)[C@H](Cc2cn(C)c3ccccc23)NC(=O)[C@@H](NC(C)=O)CCCCNC(=O)[C@@H]2CSSC[C@H](NC1=O)C(=O)N[C@@H](Cc1ccc(OCCN(C)C)cc1)C(=O)N[C@@H](Cc1ccc3ccccc3c1)C(=O)NC1(CCOCC1)C(=O)N[C@H](C(=O)N[C@@H](CC(N)=O)C(=O)N[C@@H](Cc1cccnc1)C(=O)N(C)CC(N)=O)CCC(=O)NCCCCC(=O)N2 [compound 126] (Ac-K[Trp(1-Me)]K(Ac)CY(Me2NCH2CH2)[2Nal][Thp]EN[3Pal][Sar]-NH2; linker 1-4-8 via X1) and report it.
Data returned: 9.25

Data request: Find the recorded pIC50 belonging to CC(=O)N[C@H]1CCCCNC(=O)[C@@H]2CSSC[C@H](NC(=O)[C@H](CCC(N)=O)NC(=O)[C@H](Cc3c[nH]c4ccccc34)NC1=O)C(=O)N[C@@H](Cc1ccc(OCCN)cc1)C(=O)N[C@@H](Cc1ccc3ccccc3c1)C(=O)N[C@@](C)(CC(C)C)C(=O)N[C@H](C(=O)N[C@@H](CC(N)=O)C(=O)N[C@@H](CC(N)=O)C(N)=O)CCC(=O)N(C)CCCCC(=O)N2 [compound 14] (Ac-KWQC[AEF][2Nal][αMeL]ENN-NH2; linker 1-4-8 via X3) and report it.
Data returned: 9.44

Data request: Find the recorded pIC50 belonging to CC[C@H](C)[C@H](NC(=O)[C@H](Cc1cccnc1)NC(=O)[C@H](CC(N)=O)NC(=O)[C@@H]1CCC(=O)NCCCCC(=O)N[C@H]2CSSC[C@H](NC(=O)[C@H](CCCCNC(C)=O)NC(=O)[C@H](Cc3c[nH]c4ccccc34)NC(=O)[C@H]([C@@H](C)O)NC(=O)[C@H](CC(N)=O)NC2=O)C(=O)N[C@@H](Cc2ccc(OCCN(C)C)cc2)C(=O)N[C@@H](Cc2ccc3ccccc3c2)C(=O)NC(C)(C)C(=O)N1)C(N)=O [compound 37] ([Ava]CNTWK(Ac)CY(Me2NCH2CH2)[2Nal][Aib]EN[3Pal]I-NH2; disulfide 2-7; lactam N-11) and report it.
Data returned: 9.42

Data request: Find the recorded pIC50 belonging to CC(=O)NCCCC[C@@H]1NC(=O)[C@H](Cc2c[nH]c3c(C)cccc23)NC(=O)[C@H]([C@@H](C)O)NC(=O)[C@H](CC(N)=O)NC(=O)[C@@H]2CSSC[C@H](NC1=O)C(=O)N[C@@H](Cc1ccc(OCCN(C)C)cc1)C(=O)N[C@@H](Cc1ccc3ccccc3c1)C(=O)NC1(CCOCC1)C(=O)N[C@H](C(=O)N[C@@H](CC(N)=O)C(=O)N[C@@H](Cc1c[nH]cn1)C(N)=O)CCC(=O)NCCCCC(=O)N2 [compound 21] ([Ava]CNT[Trp(7-Me)]K(Ac)CY(Me2NCH2CH2)[2Nal][Thp]ENH-NH2; disulfide 2-7; lactam N-11) and report it.
Data returned: 9.51

These entries and their values trace back to patent US20260258084A1.
